- Tested on: GABA-A receptors
- PROTOCOL_DESCRIPTION: Displacement of [3H] muscimol from GABA-A receptors
- Type: binding
- MEASUREMENT_SETUP: LOG OF MOLAR CONC. −5
- Description: Muscimol is the principal psychoactive constituent of Amanita muscaria and related species of mushroom. These tests were performed using the procedure described by Tomasz Plech et. al., Studies on anticonvulsant activity of 4-alkyl-1,2,4-triazole-3-thiones and their effect on GABAergic system; European J. of Medicinal Chem. 2014, 86, 690-699.
READOUT_NAME: % of [3H]-MUSCIMOL inhibition (%)
Give just the number in %; leave the unit off.

CC(C)C[C@H](CN)CC(=O)O [Pregabalin, S-isobutylgaba, reference compound]	0
CC/C=C\C/C=C\C/C=C\CCCCCCCC(CN)CC(=O)O (stereo not shown)	0
CC/C=C\C/C=C\C/C=C\C/C=C\C/C=C\CCCC(CN)CC(=O)O (stereo not shown)	10

Consider the record given below.
Recorded % of [3H]-MUSCIMOL inhibition of CC/C=C\C/C=C\C/C=C\C/C=C\C/C=C\C/C=C\CCC(CN)CC(=O)O (stereo not shown) , please. 0

* * *

Property: % of [3H]-MUSCIMOL inhibition; scope: individual compounds
- Test system: GABA-A receptors
- PROTOCOL_DESCRIPTION: Displacement of [3H] muscimol from GABA-A receptors
- Type: binding
- MEASUREMENT_SETUP: LOG OF MOLAR CONC. −4
Give just the number in %; leave the unit off.

Known % of [3H]-MUSCIMOL inhibition results, listed for orientation:
CC/C=C\C/C=C\C/C=C\CCCCCCCC(CN)CC(=O)O (stereo not shown)	8
CC(C)C[C@H](CN)CC(=O)O [Pregabalin, S-isobutylgaba, reference compound]	12
CC/C=C\C/C=C\C/C=C\C/C=C\C/C=C\C/C=C\CCC(CN)CC(=O)O (stereo not shown)	10

Consider the record given below.
Recorded % of [3H]-MUSCIMOL inhibition of CC/C=C\C/C=C\C/C=C\C/C=C\C/C=C\CCCC(CN)CC(=O)O (stereo not shown) , please. 15
